# method_description: compound effects on hepatocellular carcinoma cell viability – HepG2, calcein-AM fluorescence, 48 h, basal, profiling panel (AID 1164); also: test concentration not given here
# details: higher = more signal
Decide using z-score: a value greater than or equal to -0.3 is 1 (yes), a smaller one is 0 (no).

Field: example entries. Status: answers known.
>>> assigned_label("COc1ccc([Si](C)(C)[C@H]2[C@H](CC(=O)N3CCC[C@H]3CO)O[C@@]3(C(=O)N(Cc4ccc(N5CCCCC5=O)cc4)c4ccccc43)[C@@H]2C)cc1")
"0 (no)"
>>> assigned_label("O=C(NCc1ccccc1)[C@@H]1c2ccccc2C(=O)N(Cc2cc(C(F)(F)F)cc(C(F)(F)F)c2)[C@H]1c1ccc(CO)cc1")
"1 (yes)"
>>> assigned_label("COCCOC(=O)N1C(=O)[C@@]2(c3cc(C#CCC(C(=O)OC)C(=O)OC)ccc31)[C@H](C(N)=O)[C@H]1C(=O)O[C@H](c3ccccc3)[C@H](c3ccccc3)N1[C@@H]2c1ccc(O)cc1")
"0 (no)"
>>> assigned_label("NCCCCCCNC(=O)[C@@H]1C[C@@H]2C(=O)N3CCC[C@H]3C(=O)N2[C@@H]1c1cccc(OCCO)c1")
"1 (yes)"

-- ask Please check the record COc1ccc(NN2C(C(O)c3ccc(I)cc3)C=CC3C(=O)N(C4CCCCC4)C(=O)C32)cc1 (configuration not stated) and state if its z-score is at or above -0.3.
-- reply 1 (yes)

-- ask Entry to check: [N-]=[N+]=NCc1ccccc1[C@@H]1OC(c2ccc(OCCCO)cc2)=N[C@]1(Cc1ccccc1N=[N+]=[N-])C(=O)NCC(O)CO (some centres not stated)
-- reply 0 (no)

-- ask Entry to check: O=C1O[C@H](c2ccccc2)[C@H](c2ccccc2)N2[C@H]1[C@@H](C(=O)O)[C@]1(C(=O)Nc3ccc(C#CCCO)cc31)[C@H]2c1ccc(OCCO)cc1
-- reply 1 (yes)

* * *

# method_description: optical density shifts of acrAB sulA E. coli – strain DRC41, OD650, 48 h, E. coli filamentation inducer project, primary screen (AID 1152);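 also: E. coli MC1000 strain DRC41 lacking acrAB efflux pump and sulA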
# details: higher = more signal, called active from +8 up or from −8 down
z-score values by entry
// keep it numeric: no unit symbol after the value

>>> numeric_readout("CC(C)C[C@H]1NC(=O)C([C@@H](C)OCc2ccccc2)NC(=O)[C@@]23C(=O)N[C@@H](Cc4ccccc4)C2[C@H](C)[C@@]2(C)O[C@H]2C3/C=C/C/C=C\\CNC1=O (stereo partly drawn)")
-0.629
>>> numeric_readout("[N-]=[N+]=Nc1ccccc1[C@H]1OC(c2ccc(OCCCO)cc2)=N[C@@]1(Cc1ccccc1)C(=O)NCC(O)CO (stereo partly drawn)")
0.348

-- ask Requested read-out: z-score. Entry: COCCOC(=O)N1C(=O)[C@@]2(c3cc(C#CCCO)ccc31)[C@H](C(N)=O)[C@H]1C(=O)O[C@H](c3ccccc3)[C@H](c3ccccc3)N1[C@@H]2c1ccccc1OCCO
-- reply -0.3

* * *

# system_name: Torsin-1A (Homo sapiens) (UniProt O14656)
# Sequence (O14656 whole entry, looked up): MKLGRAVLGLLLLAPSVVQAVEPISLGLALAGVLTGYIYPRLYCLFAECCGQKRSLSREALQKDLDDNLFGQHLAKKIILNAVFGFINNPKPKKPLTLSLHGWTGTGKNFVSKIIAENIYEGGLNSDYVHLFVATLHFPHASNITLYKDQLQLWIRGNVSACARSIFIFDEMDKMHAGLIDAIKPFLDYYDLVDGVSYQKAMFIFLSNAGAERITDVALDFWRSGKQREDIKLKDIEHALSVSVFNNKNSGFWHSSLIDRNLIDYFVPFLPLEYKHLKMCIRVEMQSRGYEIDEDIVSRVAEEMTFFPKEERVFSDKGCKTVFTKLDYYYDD
# method_description: torsin A mutant lysate binding on microarrays – cell lysate, small-molecule microarray, COS7 lysate, 635/667 nm fluorescence, primary screen (AID 1150);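 also: score pools 667 nm emission and signal to noise measuring lysate protein binding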
# details: COS7 hTOR1A mutant lysate, 635 nm fluorescence, higher = more signal
quantity_name: composite z-score
// keep it numeric: no unit symbol after the value

# annotated cases, reported composite z-score shown
>>> numeric_readout("O=C(NCc1ccc(F)cc1)[C@H]1C[C@H]2C(=O)N3CCC[C@H]3C(=O)N2[C@H]1c1ccc(O)cc1")
0.202
>>> numeric_readout("CN(C)CCCNC(=O)[C@@]1(Cc2ccccc2I)c2ccccc2C(=O)N(C2CCCCC2)[C@H]1c1ccc(CO)cc1")
0.794
>>> numeric_readout("C=C(C)[C@@H]1CC=C(C(O)C2C=CC3C(=O)N(c4ccccc4)C(=O)C3N2Nc2ccc([N+](=O)[O-])cc2)CC1 (some centres undefined)")
0.685

Shifting focus to the compound that follows.
-- ask Requested read-out: composite z-score. Entry: COC(=O)[C@@]1(Cc2ccc(F)cc2)[C@H]2c3cc(C(=O)N4CCCC4)n(Cc4ccccn4)c3C[C@H]2CN1C(=O)c1ccccc1
-- reply 0.738

Measured values drawn from PubChem BioAssay for this set.
